Listed below: IC50 values for each entry.
test system: RAW264.7; assay: Antiinflammatory activity against mouse RAW264.7 cells assessed as inhibition of HMGB1-induced NO production pretreated with compounds for 15 mins followed by HMGB1 stimulation measured after 24 hrs by Griess reagent based assay; assay type: functional, cell-based
readoutType: IC50

molecule	testSystem	dataValue
C=C(CO)[C@@H]1CC[C@]2(C(=O)O)CC[C@]3(C)[C@H](CC[C@@H]4[C@@](C)(CCC(=O)O)[C@H](C(C)(C)O)CC[C@]43C)[C@@H]12	RAW264.7	> 100 µM
C[C@]1(CO)C[C@H]2C3=CC[C@@H]4[C@@](C)(CCC(=O)O)[C@H]([C@](C)(O)CO)CC[C@@]4(C)[C@]3(C)CC[C@@]2(C)[C@H](O)[C@@H]1O	RAW264.7	36 µM
CC1(C)C[C@@H](O)[C@]2(C)CC[C@]3(C)C(=CC[C@@H]4[C@@](C)(CCC(=O)O)[C@H]([C@](C)(O)CO)CC[C@]43C)[C@@H]2C1	RAW264.7	> 100 µM
CC1(C)C[C@H]2C3=CC[C@@H]4[C@@]5(C)CC[C@H](O)[C@](C)(CO)[C@@H]5CC[C@@]4(C)[C@]3(C)CC[C@@]2(C)[C@H](O)[C@@H]1O [SOYASAPOGENOL A]	RAW264.7	> 100 µM
CC1(C)[C@@H](OC(=O)CCC(=O)O)CC[C@]2(C)[C@H]3C(=O)C=C4[C@@H]5C[C@@](C)(C(=O)O)CC[C@]5(C)CC[C@@]4(C)[C@]3(C)CC[C@@H]12 [CARBENOXOLONE]	RAW264.7	11.4 µM
C=C(CO)[C@@H]1CC[C@]2(C(=O)O)CC[C@]3(C)[C@H](CC[C@@H]4[C@@](C)(CCC(=O)OC)[C@H](C(C)(C)O)CC[C@]43C)[C@@H]12	RAW264.7	> 100 µM
CC(O)(CO)[C@@H]1CC[C@]2(C)[C@H](CC=C3[C@@H]4C[C@@](C)(CO)C[C@@H](O)[C@]4(C)CC[C@]32C)[C@@]1(C)CCC(=O)O (some centres not stated)	RAW264.7	> 100 µM
CC1(C)C[C@@H](O)[C@]2(C)CC[C@]3(C)C(=CC[C@@H]4[C@@]5(C)CC[C@H](O)[C@](C)(CO)[C@@H]5CC[C@]43C)[C@@H]2C1 [SOYASAPOGENOL B]	RAW264.7	> 100 µM
CC1(C)C[C@H]2C3=CC[C@@H]4[C@@](C)(CCC(=O)O)[C@H]([C@](C)(O)CO)CC[C@@]4(C)[C@]3(C)C[C@@H](O)[C@@]2(CO)[C@@H](O)[C@@H]1O	RAW264.7	> 100 µM
CC1(C)C[C@H]2C3=CC[C@@H]4[C@@](C)(CCC(=O)O)[C@H]([C@](C)(O)CO)CC[C@@]4(C)[C@]3(C)CC[C@@]2(C)[C@H](O)[C@@H]1O	RAW264.7	> 100 µM
C[C@@]1(CO)C[C@@H](O)[C@]2(C)CC[C@]3(C)C(=CC[C@@H]4[C@@](C)(CCC(=O)O)[C@H]([C@](C)(O)CO)CC[C@]43C)[C@@H]2C1	RAW264.7	> 100 µM
COC(=O)CC[C@@]1(C)[C@H]([C@](C)(O)CO)CC[C@]2(C)[C@@H]1CC=C1[C@@H]3C[C@@](C)(CO)C[C@@H](O)[C@]3(C)CC[C@]12C	RAW264.7	> 100 µM

----------
system: RAW264.7; experiment: Antiinflammatory activity against mouse RAW264.7 cells assessed as inhibition of HMGB1-induced NO production pretreated with compounds for 15 mins followed by HMGB1 stimulation measured after 24 hrs by Griess reagent based assay; type: functional, cell-based
Listed below: IC50 values for each entry.

querySmiles	IC50
C=C(C)[C@@H]1CC[C@]2(C(=O)O)CC[C@]3(C)[C@H](CC[C@@H]4[C@@](C)(CCC(=O)OC)[C@H](C(C)(C)O)CC[C@]43C)[C@@H]12	> 100 µM
C[C@@]1(CO)C[C@H]2C3=CC[C@@H]4[C@@](C)(CCC(=O)O)[C@H]([C@](C)(O)CO)CC[C@@]4(C)[C@]3(C)CC[C@@]2(C)[C@H](O)[C@@H]1O	> 100 µM
C=C(C)[C@@H]1CC[C@]2(C(=O)O)CC[C@]3(C)[C@H](CC[C@@H]4[C@@]5(C)CC[C@H](O)C(C)(C)[C@@H]5CC[C@]43C)[C@@H]12	> 100 µM
C=C(C)[C@@H]1CC[C@]2(C(=O)O)CC[C@]3(C)[C@H](CC[C@@H]4[C@@](C)(CCC(=O)O)[C@H](C(C)(C)O)CC[C@]43C)[C@@H]12	> 100 µM
CC1(C)C[C@H]2C3=CC[C@@H]4[C@@](C)(CCC(=O)O)[C@H]([C@](C)(O)CO)CC[C@@]4(C)[C@]3(C)CC[C@@]2(C)[C@H](O)[C@H]1O	15.9 µM
